test system: HT-29; experiment: Anticancer activity against human HT-29 cells assessed as reduction in cell viability measured after 72 hrs by SRB assay; assay type: functional, cell-based; settings: HT-29, 72 h
The following ranges of IC50 define the classes used here: Low: < 7 µM; Mid: ≥ 7 µM and < 10 µM; High: ≥ 10 µM

Ask: Bin? `C=C1CC[C@@H]2[C@](C)(COC(C)=O)[C@H](OC(C)=O)CC[C@@]2(C)[C@@H]1C[C@H](SC(=S)N1CCN(C(c2ccccc2)c2ccccc2)CC1)C1=CCOC1=O`
Result: High

Ask: Would you mind sorting `C=C1CC[C@@H]2[C@](C)(COC(C)=O)[C@H](OC(C)=O)CC[C@@]2(C)[C@@H]1C[C@H](SC(=S)N(C)Cc1ccc(F)cc1)C1=CCOC1=O` into the appropriate category?
Result: Low

Ask: State the band of `C=C1CC[C@@H]2[C@](C)(COC(C)=O)[C@H](OC(C)=O)CC[C@@]2(C)[C@@H]1C[C@H](SC(=S)N1CCN(C(c2ccc(F)cc2)c2ccc(F)cc2)CC1)C1=CCOC1=O`
Result: High

Ask: Please report the category associated with C=C1CC[C@@H]2[C@](C)(COC(C)=O)[C@H](OC(C)=O)CC[C@@]2(C)[C@@H]1C[C@H](SC(=S)N1CCc2ccccc2C1c1ccccc1)C1=CCOC1=O (some centres not stated) , nothing else.
Result: Mid

* * *

test: Anticancer activity against rat ASK cells assessed as reduction in cell viability measured after 72 hrs by SRB assay; format: functional, cell-based
quantityKind: pIC50
Scale: pIC50 equals -log10([C]), with [C] in mol/L.

Example molecules with recorded pIC50:
[
  {
    "molecule": "C=C1CC[C@@H]2[C@](C)(COC(C)=O)[C@H](OC(C)=O)CC[C@@]2(C)[C@@H]1C[C@H](SC(=S)N(C)Cc1ccc(F)cc1)C1=CCOC1=O",
    "pIC50": 4.77
  },
  {
    "molecule": "C=C1CC[C@@H]2[C@](C)(COC(C)=O)[C@H](OC(C)=O)CC[C@@]2(C)[C@@H]1C[C@H](SC(=S)N(Cc1ccccc1)C(C)C)C1=CCOC1=O",
    "pIC50": 4.69
  },
  {
    "molecule": "C=C1CC[C@@H]2[C@](C)(COC(C)=O)[C@H](OC(C)=O)CC[C@@]2(C)[C@@H]1C/C=C1/C(=O)OC[C@H]1OC(C)=O",
    "pIC50": 4.65
  },
  {
    "molecule": "C=C1CC[C@@H]2[C@](C)(COC(C)=O)[C@H](OC(C)=O)CC[C@@]2(C)[C@@H]1C[C@H](SC(=S)N1CCN(Cc2ccc(Cl)cc2)CC1)C1=CCOC1=O",
    "pIC50": 4.58
  },
  {
    "molecule": "C=C1CC[C@@H]2[C@](C)(CO)[C@H](O)CC[C@@]2(C)[C@@H]1C/C=C1/C(=O)OC[C@H]1O [ANDROGRAPHOLIDE]",
    "pIC50": 4.46
  },
  {
    "molecule": "C=C1CC[C@@H]2[C@](C)(COC(C)=O)[C@H](OC(C)=O)CC[C@@]2(C)[C@@H]1C[C@H](SC(=S)N1CCN(c2ccccc2)CC1)C1=CCOC1=O",
    "pIC50": 4.81
  },
  {
    "molecule": "C=C1CC[C@@H]2[C@](C)(COC(C)=O)[C@H](OC(C)=O)CC[C@@]2(C)[C@@H]1C[C@H](SC(=S)N1CCN(C(=O)C2COc3ccccc3O2)CC1)C1=CCOC1=O (some centres undefined)",
    "pIC50": 4.59
  },
  {
    "molecule": "C=C1CC[C@@H]2[C@](C)(COC(C)=O)[C@H](OC(C)=O)CC[C@@]2(C)[C@@H]1C[C@H](SC(=S)N(Cc1ccccc1)Cc1ccccc1)C1=CCOC1=O",
    "pIC50": 5.14
  },
  {
    "molecule": "C=C1CC[C@@H]2[C@](C)(COC(C)=O)[C@H](OC(C)=O)CC[C@@]2(C)[C@@H]1C[C@H](SC(=S)N(C)Cc1ccccc1)C1=CCOC1=O",
    "pIC50": 5.16
  },
  {
    "molecule": "C=C1CC[C@@H]2[C@](C)(COC(C)=O)[C@H](OC(C)=O)CC[C@@]2(C)[C@@H]1C[C@H](SC(=S)N1CCN(c2ccccc2OC)CC1)C1=CCOC1=O",
    "pIC50": 4.84
  }
]

Ask: Record request: pIC50 value, item `C=C1CC[C@@H]2[C@](C)(COC(C)=O)[C@H](OC(C)=O)CC[C@@]2(C)[C@@H]1C[C@H](SC(=S)N1CCN(c2ccc(C)cc2)CC1)C1=CCOC1=O`
Result: 4.55

Ask: # input molecule: `C=C1CC[C@@H]2[C@](C)(COC(C)=O)[C@H](OC(C)=O)CC[C@@]2(C)[C@@H]1C[C@H](SC(=S)N1CCN(Cc2ccc3c(c2)OCO3)CC1)C1=CCOC1=O` ; wanted: its pIC50
Result: 4.83

Ask: Please give the measured pIC50 for this molecule: C=C1CC[C@@H]2[C@](C)(COC(C)=O)[C@H](OC(C)=O)CC[C@@]2(C)[C@@H]1C[C@H](SC(=S)N1CCc2ccccc2C1c1ccccc1)C1=CCOC1=O (some centres undefined)
Result: 4.63

Ask: Would you mind telling me what pIC50 value was observed for `C=C1CC[C@@H]2[C@](C)(COC(C)=O)[C@H](OC(C)=O)CC[C@@]2(C)[C@@H]1C[C@H](SC(=S)N1CCN(c2ccc(O)cc2)CC1)C1=CCOC1=O` ?
Result: 5.32

Ask: Which pIC50 value belongs to `C=C1CC[C@@H]2[C@](C)(COC(C)=O)[C@H](OC(C)=O)CC[C@@]2(C)[C@@H]1C[C@H](SC(=S)N1CCC(Cc2ccccc2)CC1)C1=CCOC1=O` ?
Result: 4.54

Ask: Value lookup for pIC50; key = `C=C1CC[C@@H]2[C@](C)(COC(C)=O)[C@H](OC(C)=O)CC[C@@]2(C)[C@@H]1C[C@H](SC(=S)N1CCOCC1)C1=CCOC1=O`
Result: 5.03
